Drug metabolism overview
- test_method_notes: Prodrug conversion in 0.1 M phosphate buffer solution assessed as benzofibrate formation at pH 5.2 at 40 degC after 4 hrs by HPLC analysis
- Assay type: physicochemical
- settings: pH 5.2, 4 h
Lab book: enter the figure in µg/mL, no units written.

>  <compound>
Cc1oc(=O)oc1COC(=O)C(C)(C)Oc1ccc(CCNC(=O)c2ccc(Cl)cc2)cc1

>  <unit_of_measurement>
µg/mL

>  <reported_measurement>
0.2

$$$$
>  <compound>
CC(=O)OCCOC(=O)C(C)(C)Oc1ccc(CCNC(=O)c2ccc(Cl)cc2)cc1

>  <unit_of_measurement>
µg/mL

>  <reported_measurement>
0.7

$$$$
>  <compound>
CC(C)(Oc1ccc(CCNC(=O)c2ccc(Cl)cc2)cc1)C(=O)OCCN1CCOCC1

>  <unit_of_measurement>
µg/mL

>  <reported_measurement>
6.3

$$$$
>  <compound>
CC(=O)OC(C)OC(=O)C(C)(C)Oc1ccc(CCNC(=O)c2ccc(Cl)cc2)cc1 (stereo not given)

>  <unit_of_measurement>
µg/mL

>  <reported_measurement>
0.2

$$$$

stdin: State the recorded Drug metabolism for this entry: `CC(C)(C)C(=O)OCOC(=O)C(C)(C)Oc1ccc(CCNC(=O)c2ccc(Cl)cc2)cc1`
stdout: 1.7
